Data provenance is patent US8957074B2.

# Test system: phosphorylation of pRb at the Ser780 site in JeKo-1 mantle cell lymphoma cells
# Assay: CDK4 cellular assay: ELISA of pRb phosphorylation at Ser780 in JeKo-1 cells
# Type: cell-based
# Assay setup: Homo sapiens, JeKo-1, JeKo-1 cells, p-pRb % inhibition adjusted with total pRb levels; read-out: Normalized cellular ppRb inhibition IC50
Observation type: IC50

Worked examples, 2 molecules total:
CN1C[C@@H]2CN(c3ccc(Nc4ncc5cc(C(=O)N(C)C)n(C6CCCC6)c5n4)nc3)C(=O)[C@@H]2C1 (stereo in doubt) [Example 95]    21 to 65 nM
CN(C)C(=O)c1cc2cnc(Nc3ccc(N4C[C@@H]5CNC[C@@H]5CC4=O)cn3)nc2n1C1CCCCCC1 (stereo in doubt) [Example 89]    4 to 15 nM

Now let's try a different one.
What value of measured IC50 is listed for CN(C)C(=O)c1cc2cnc(Nc3ccc(N4C[C@H]5CC[C@@H](CC4=O)N5C)cn3)nc2n1C1CCCC1 [Example 140] ?
11 to 18 nM

###

# Test system: phosphorylation of pRb at the Ser780 site in JeKo-1 mantle cell lymphoma cells
# Assay: CDK4 cellular assay: ELISA of pRb phosphorylation at Ser780 in JeKo-1 cells
# Format: cell-based
# Assay setup: Homo sapiens; JeKo-1 cells, p-pRb % inhibition adjusted with total pRb levels; read-out: Normalized cellular ppRb inhibition IC50
# Experimental: Cell-based assay measuring phosphorylation levels of pRb at the Ser780 site using an enzyme-linked immunosorbent assay (ELISA) method (Table 6). […] Plates were incubated overnight at 4° C. with rocking. […] After incubation, 50 μL 2 M sulfuric acid were added to plates to top the reaction, and absorbance was determined on a SpectraMax (Molecular Devices, Sunnydale, Calif.) within 15 minutes at 450 nm. […]
Observation type: IC50 (nM)
Please give a number only; it is taken to be in nM.

Lab request: please report IC50 under test system phosphorylation of pRb at the Ser780 site in JeKo-1 mantle cell lymphoma cells for CN1CCCC2(CC1)CN(c1ccc(Nc3ncc4cc(C(=O)N(C)C)n(C5CCCC5)c4n3)nc1)C(=O)O2 (stereo not drawn) [Example 104]
64

Lab request: please report IC50 under test system phosphorylation of pRb at the Ser780 site in JeKo-1 mantle cell lymphoma cells for CNC(=O)c1cc2cnc(Nc3ccc(N4C[C@H]5CC[C@@H](CC4=O)N5C)cn3)nc2n1C1CCCC1 [Example 125]
161

Lab request: please report IC50 under test system phosphorylation of pRb at the Ser780 site in JeKo-1 mantle cell lymphoma cells for CN1CC2(C)CN(C(=O)c3ccc(Nc4ncc5cc(C(=O)N(C)C)n(C6CCCC6)c5n4)nc3)CC(C)(C1)C2O (stereo not drawn) [Example 39]
136

###

# Target or system: CDK4/cyclin D1 (Homo sapiens (Human), UniProt P11802)
# Sequence (P11802 whole entry): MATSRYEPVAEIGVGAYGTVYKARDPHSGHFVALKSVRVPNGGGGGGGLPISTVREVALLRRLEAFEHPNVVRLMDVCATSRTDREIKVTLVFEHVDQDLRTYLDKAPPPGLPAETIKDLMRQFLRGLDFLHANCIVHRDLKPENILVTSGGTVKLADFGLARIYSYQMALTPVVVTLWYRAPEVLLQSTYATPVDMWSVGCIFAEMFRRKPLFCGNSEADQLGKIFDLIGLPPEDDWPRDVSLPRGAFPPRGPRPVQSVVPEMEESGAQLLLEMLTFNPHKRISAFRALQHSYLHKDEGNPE
# Sequence (P24385 whole entry partner): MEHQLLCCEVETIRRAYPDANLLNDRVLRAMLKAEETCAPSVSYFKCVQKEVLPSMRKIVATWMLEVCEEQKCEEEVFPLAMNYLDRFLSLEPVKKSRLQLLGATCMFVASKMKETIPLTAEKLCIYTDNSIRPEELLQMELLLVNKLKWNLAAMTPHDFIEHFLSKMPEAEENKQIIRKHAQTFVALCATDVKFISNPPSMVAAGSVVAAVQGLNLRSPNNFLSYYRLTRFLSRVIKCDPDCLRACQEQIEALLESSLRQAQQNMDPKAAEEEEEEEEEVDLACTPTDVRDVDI
# Assay: CDK4/cyclin D1 enzymatic activity assay (TR-FRET, phosphorylation of pRb at Ser780)
# Type: biochemical
# Assay setup: 0.3 nM CDK4/cyclin D1, 150 nM biotin-pRb (773-924), 3 μM ATP, 60 min at 22° C.; read-out: Biochemical CDK4 enzyme IC50
Observation type: IC50 (nM)
Please give a number only; it is taken to be in nM.

CN(C)C(=O)c1cc2cnc(Nc3ccc(C(=O)N4CC5CCC(C4)N5)cn3)nc2n1C1CCCOC1 (stereo not drawn)    76
CN(C)C(=O)c1cc2cnc(Nc3ccc(N4CC5CNCC5CC4=O)cn3)nc2n1C1CCCC1 (racemic)    5
CN(C)C(=O)c1cc2cnc(Nc3ccc(N4C[C@H]5CNC[C@H]5C4=O)cn3)nc2n1C1CCCCCC1    3
[2H]C([2H])([2H])N1[C@@H]2CC[C@H]1CN(c1ccc(Nc3ncc4cc(C(=O)N(C)C)n(C5CCCC5)c4n3)nc1)C(=O)C2    44
CN(C)C(=O)c1cc2cnc(Nc3ccc(C(=O)N4CCN5CCC4CC5)cn3)nc2n1C1CCCC1    24

Now let's try a different one.
What value of measured IC50 is listed for CN(C)C(=O)c1cc2cnc(Nc3ccc(N4C[C@H]5CC[C@@H](CC4=O)N5)cn3)nc2n1C1CCC1 ?
54
